- System: UO-31 renal
- EXPERIMENTAL DETAILS: NCI tumour cell line growth inhibition, 48 h
Can you tell me TGI for the items I'm about to list?
Kindly answer with a numeric value in µM, unit omitted.

In one line, give reported TGI of the entry CCC1(OC(C)=O)C(=O)OCc2c1cc1n(c2=O)Cc2cc3ccccc3nc2-1 (stereo not given) . 8.19

Annotate the molecule `CC/C=C\CCC/C=C1/C(=O)C=C[C@@H]1C/C=C\CCCC(=O)O` with its measured TGI. 5.58

Give the reported TGI for this molecule. CC1=C(C(=O)OC(C)C)C(c2ccccc2[N+](=O)[O-])C(C(=O)OC(CO[N+](=O)[O-])CO[N+](=O)[O-])=C(C)N1 (stereo not given) 16.2

====

- System: SK-MEL-28 melanoma
- EXPERIMENTAL DETAILS: NCI tumour cell line growth inhibition, 48 h
Where a SMILES comes first, the peptide text is derived from it. The star is where a group is joined. Cbz = O=C(OCc1ccccc1)*
MEASURED PARAMETER: TGI

Kindly indicate its recorded TGI. Item: O=C(C1OC1c1ccc([N+](=O)[O-])cc1)C12CC3CC(CC(C3)C1)C2 (configuration not stated) 33.4 µM

Return TGI for the following compound: `Cc1cc2c(-c3ccccc3)cc(=O)[nH]c2cc1N` > 100 µM

Find the measured TGI of `COc1cc(C2C(C(=O)Nc3ccccc3)=C(C)NC(C)=C2C(=O)Nc2ccccc2)ccc1O` and report it. > 100 µM

Give reported TGI value for Cc1cc(C)c(C(=O)OC(c2ccccc2)C(c2ccccc2)N2CCOCC2)c(C)c1 (configuration not stated) > 100 µM

Give the reported TGI for this compound. C=C1C(C)C2C(Cc3ccccc3)NC(=O)C23C(OC(C)=O)/C=C/C(C)(O)CC(C)C/C=C/C3C1O (configuration not stated) > 97.7 µM

Kindly indicate its recorded TGI. Item: COc1cc2c(c(OC)c1OC)C(=O)CC2N (configuration not stated) > 100 µM

Identify the reported TGI for the following entry. C[C@@H]1CCC2[C@@H](C)C(=O)O[C@@H]3C4C[C@@H]1[C@@]23OO[C@@]4(C)O (some centres not stated) > 100 µM

Quick one: give measured TGI for `CC1(C)CC(=O)c2c(nc3ccc4ccccc4c3c2-c2ccc(NC(=O)CCCCC(=O)Nc3ccc(-c4c5c(nc6ccc7ccccc7c46)CC(C)(C)CC5=O)cc3)cc2)C1` > 100 µM

Check the records and state TGI for CCOC(=O)C(C)NC(=O)C(C)NC(=O)C(C)NC(=O)C(C)NC(=O)C(C)NC(=O)C(C)NC(=O)C(C)NC(=O)OCc1ccccc1 (configuration not stated) (Cbz-AAAAAAA-OEt; configuration not given here) > 100 µM

Determine its reported TGI: `CN1CCN(c2ccc3[nH]c(C4=C(O)c5nc(CO)n(C)c5C(=O)C4=O)nc3n2)CC1` > 100 µM

Consider the compound `FC(F)(F)c1ccc(-c2cnc(Br)nc2NC2CCCCCC2)cc1` and give its recorded TGI. > 100 µM

In one line, give reported TGI of the entry O=C1C2=C(c3ccccc31)C(c1ccccc1Cl)N1C(=O)CSC1=N2 (configuration not stated) . > 100 µM

Using the record for `S=C(Nc1ccc(Br)cn1)NC12CC3CC(CC(C3)C1)C2` , state its measured TGI. > 100 µM

Could you please provide reported TGI for `CO[C@H]1O[C@@H]2CO[C@@H](c3ccccc3)O[C@H]2C[C@]12CCC/C=C\CO2` ? Thanks! 26.6 µM

Tell us which TGI value is on record for CC(C)[Si]1(C(C)C)OCC2OC(n3ccc(=O)[nH]c3=O)C(O)(CO)C2O[Si](C(C)C)(C(C)C)O1 (configuration not stated) 36.7 µM

Please list TGI recorded for the compound CCNCC(O)c1ccc(N)c([N+](=O)[O-])c1 (configuration not stated) > 100 µM

Determine from records and report TGI for COc1nc(=O)n(C2CC(N=[N+]=[N-])C(CO)O2)cc1C (configuration not stated) > 100 µM

Annotate the compound `CCN(CC)CCCNC(=O)Cc1ccccc1Nc1c(Cl)cccc1Cl` with its measured TGI. 25.4 µM

Answer with reported TGI of CCCCCCCSCC(O)COC(c1ccccc1)(c1ccccc1)c1ccccc1 (configuration not stated) > 100 µM

Identify measured TGI associated with CC(C)(C)OC(=O)N1CCC23CCCC2C(=O)CC=C13 (configuration not stated) > 100 µM

Identify TGI associated with the compound Cc1cccc2c1C(=O)C(C1OC(=O)c3ccccc31)C2 (configuration not stated) > 100 µM

Return TGI for the following compound: `CSC(=NCCN=C(NS(=O)(=O)c1ccc(Cl)cc1)SC)NS(=O)(=O)c1ccc(Cl)cc1` > 100 µM

Determine its reported TGI: CC(C)C(N)(C(=O)O)c1ccccc1 (configuration not stated) > 100 µM

Supply measured TGI of C=C(Cl)C(Cl)(CBr)CCC(Cl)C(C)(C)Cl (configuration not stated) in your reply. 3.8 µM

Assign TGI to the following record: `Cn1c(O)c(C(=O)Nc2ccc([N+](=O)[O-])cc2)c(=O)n(C)c1=S` 3.68 µM

Give reported TGI value for `Cc1ccc(Nc2ccc(Nc3ccc(C)cc3)c3c2C(=O)c2c(O)ccc(O)c2C3=O)cc1` > 100 µM

Return TGI for the following compound: `COC1=C(OC)CCC(/C(C#N)=C/c2ccc(OC)c(OC)c2)=C1` > 100 µM

Give the value of TGI reported for the following: CSCCC(NC(c1ccccc1)c1ccccc1)[P+](=O)O (configuration not stated) > 100 µM

Return value of TGI for input Cn1cnc([N+](=O)[O-])c1Sc1ncnc2c1ncn2C1OC(CO)C(O)C1O (configuration not stated) , no commentary. > 100 µM

Provide one value: measured TGI of `COc1ccc(/C=C(\C#N)c2cc3ccccc3n2C)cc1` > 100 µM

Quick one: give measured TGI for `CCN(CC)CCNc1ccc(C)c2sc3ccc(O)cc3c(=O)c12` 2.96 µM

Return the recorded TGI value; entry: `CC1(C)CCc2c(c(N=Nc3ccccc3)c3ccccc3c2O)O1` > 100 µM

Write down TGI measured for item `Oc1c(CN2CCCC2)cc(COCc2ccccc2)c2cccnc12` 18.6 µM

Return reported TGI. Input compound: CCOC(=O)C(C[Si](C)(C)C)P(=O)(OCC)OCC (configuration not stated) > 100 µM

Answer with the recorded TGI of `O=C(CCN1CCCC1)Nc1ccc2c(NCCCc3ccccc3)c3ccccc3nc2c1` only. 3.25 µM

Please list TGI recorded for the compound CC[C@@H]1OC2(C)CC(S(=O)(=O)c3ccccc3)CC1O2 (some centres not stated) > 100 µM

Read the entry `Cn1ccnc1C(=O)/C=C/c1ccc(C(=O)Nc2nc3ccccc3[nH]2)cc1` and write its reported TGI. > 25 µM

Using known records, supply TGI for `Cc1nc2c(-c3ccccc3)[nH]c(C)c2c(=O)o1` > 100 µM

// Input: `COC(=O)CCCCC/C(=C\C(=O)C(Cl)(Cl)Cl)OC` . Output its TGI only. > 100 µM

Give the reported value of TGI for this record: `COc1cc([C@H]2Oc3c(c(O)cc4oc(-c5ccccc5)cc(=O)c34)O[C@@H]2CO)ccc1O` > 100 µM

Specify reported TGI for the compound shown: `O=[N+]([O-])C1(C2([N+](=O)[O-])CCCC2)CCCC1` > 100 µM

In one line, give reported TGI of the entry C[Se]C(=O)CC1=C2C=C(F)C=CC2/C(=C\c2ccc(S(C)=O)cc2)C1C (configuration not stated) . 0.891 µM
